B1: DLC1 (parent)
chain: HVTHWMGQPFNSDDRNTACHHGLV

- Variants of: B1
- test-details: protein stability index of a GFP-peptide fusion (GPS, HEK-293T) (PSI 1-6); higher = more stable;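 further: lentivirally expressed fusions sorted by FACS into six bins by GFP to DsRed ratio, PSI derived from sequencing read proportions per bin multiplied by bin number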
- condition: c terminus: a fixed tail appended
Each record here notes measured protein stability index.

In the examples that follow, each entry is paired with its recorded protein stability index.
| mutant-id | quantity-measured | reported |
| --- | --- | --- |
| H4K | protein stability index | 2.18 |
| R15I | protein stability index | 1.95 |

Note protein stability index for the variant shown: `C19F`
1.25

Note protein stability index for the variant shown: `A18M`
2.11

Note protein stability index for the variant shown: `H20P`
2.5

Note protein stability index for the variant shown: `W5M`
3.04
